Assay: Stability of the radiopeptides in mouse blood plasma
Conditions: mouse, blood plasma
Parameter: remaining at 24 h, 10 MBq/200 µL

Challenge: Give remaining at 24 h, 10 MBq/200 µL for the following compound: CC(C)C[C@H](NC(=O)[C@H](Cc1ccc(O)cc1)NC(=O)[C@@H](CCCNC(=N)N)NC(=O)[C@@H](CO)NC(=O)[C@H](Cc1ccccc1)NC(=O)[C@H](CC1CCCCC1)NC(=O)[C@H](CC(=O)O)NC(=O)CCOCCOCCOCCOCCNC(=O)[C@H](CCCCNC(=O)CCCc1ccc(I)cc1)NC(=O)CN1CCN(CC(=O)O)CCN(CC(=O)O)CCN(CC(=O)O)CC1)C(=O)N[C@@H](Cc1c[nH]c2ccccc12)C(=O)N[C@@H](CO)C(N)=O [[^177Lu]Lu-uPAR-05, metal not drawn]
Response given: 98%

----------
Assay: Biodistribution studies in HEK-uPAR xenograft-bearing nude mice
Conditions: female, CD1/nude, mouse, kidneys, 5 MBq (0.5 nmol), total radioactivity, 24 h p.i.; 5 MBq, 0.5 nmol; decay-corrected; average ± SD, n=3 animals
Parameter: tissue uptake at 24 h (%ID/g)
Quick note: give the figure in %ID/g, leave out the unit.

[
  {
    "Compound": "CC(C)C[C@H](NC(=O)[C@H](Cc1ccc(O)cc1)NC(=O)[C@@H](CCCNC(=N)N)NC(=O)[C@@H](CO)NC(=O)[C@H](Cc1ccccc1)NC(=O)[C@H](CC1CCCCC1)NC(=O)[C@H](CC(=O)O)NC(=O)[C@H](CCCCNC(=O)CCCc1ccc(I)cc1)NC(=O)[C@@H](N)CCCCNC(=O)CN1CCN(CC(=O)O)CCN(CC(=O)O)CCN(CC(=O)O)CC1)C(=O)N[C@@H](Cc1c[nH]c2ccccc12)C(=O)N[C@@H](CO)C(N)=O [[^177Lu]Lu-uPAR-04, metal not drawn]",
    "Test value": 5.9
  },
  {
    "Compound": "CC(C)C[C@H](NC(=O)[C@H](Cc1ccc(O)cc1)NC(=O)[C@@H](CCCNC(=N)N)NC(=O)[C@@H](CO)NC(=O)[C@H](Cc1ccccc1)NC(=O)[C@H](CC1CCCCC1)NC(=O)[C@H](CC(=O)O)NC(=O)CCOCCOCCOCCOCCNC(=O)[C@H](CCCCNC(=O)CCCc1ccc(I)cc1)NC(=O)CN1CCN(CC(=O)O)CCN(CC(=O)O)CCN(CC(=O)O)CC1)C(=O)N[C@@H](Cc1c[nH]c2ccccc12)C(=O)N[C@@H](CO)C(N)=O [[^177Lu]Lu-uPAR-05, metal not drawn]",
    "Test value": 1.6
  },
  {
    "Compound": "CC(C)C[C@H](NC(=O)[C@H](Cc1ccc(O)cc1)NC(=O)[C@@H](CCCNC(=N)N)NC(=O)[C@@H](CO)NC(=O)[C@H](Cc1ccccc1)NC(=O)[C@H](CC1CCCCC1)NC(=O)[C@H](CC(=O)O)NC(=O)CN1CCN(CC(=O)O)CCN(CC(=O)O)CCN(CC(=O)O)CC1)C(=O)N[C@@H](Cc1c[nH]c2ccccc12)C(=O)N[C@@H](CO)C(N)=O [[^177Lu]Lu-DOTA-AE105, metal not drawn, reference compound]",
    "Test value": 1.3
  }
]

Please examine the following record next.
Challenge: Give tissue uptake at 24 h for the following compound: CC(C)C[C@H](NC(=O)[C@H](Cc1ccc(O)cc1)NC(=O)[C@@H](CCCNC(=N)N)NC(=O)[C@@H](CO)NC(=O)[C@H](Cc1ccccc1)NC(=O)[C@H](CC1CCCCC1)NC(=O)[C@H](CC(=O)O)NC(=O)[C@H](CCCCNC(=O)CCCc1ccc(I)cc1)NC(=O)CN1CCN(CC(=O)O)CCN(CC(=O)O)CCN(CC(=O)O)CC1)C(=O)N[C@@H](Cc1c[nH]c2ccccc12)C(=O)N[C@@H](CO)C(N)=O [[^177Lu]Lu-uPAR-01, metal not drawn]
Response given: 4.2

----------
Catalogue of compounds with associated tissue uptake at 4 h
Assay: in vivo
Details: female, CD1/nude, mouse, 5 MBq (0.5 nmol), total radioactivity, Salivary glands
Quick note: give the figure in %ID/g, leave out the unit.

[
  {
    "Compound": "CC(C)C[C@H](NC(=O)[C@H](Cc1ccc(O)cc1)NC(=O)[C@@H](CCCNC(=N)N)NC(=O)[C@@H](CO)NC(=O)[C@H](Cc1ccccc1)NC(=O)[C@H](CC1CCCCC1)NC(=O)[C@H](CC(=O)O)NC(=O)[C@H](CCCCNC(=O)CCOCCOCCOCCOCCNC(=O)c1ccc(CNC(=O)CCCc2ccc(I)cc2)cc1)NC(=O)CN1CCN(CC(=O)O)CCN(CC(=O)O)CCN(CC(=O)O)CC1)C(=O)N[C@@H](Cc1c[nH]c2ccccc12)C(=O)N[C@@H](CO)C(N)=O [[^177Lu]Lu-uPAR-03, metal not drawn]",
    "Quantity unit": "%ID/g",
    "tissue uptake at 4 h": 3.4
  }
]

Please examine the following record next.
Challenge: Give tissue uptake at 4 h for the following compound: CC(C)C[C@H](NC(=O)[C@H](Cc1ccc(O)cc1)NC(=O)[C@@H](CCCNC(=N)N)NC(=O)[C@@H](CO)NC(=O)[C@H](Cc1ccccc1)NC(=O)[C@H](CC1CCCCC1)NC(=O)[C@H](CC(=O)O)NC(=O)[C@H](CCCCNC(=O)CCOCCOCCOCCOCCNC(=O)CCCc1ccc(I)cc1)NC(=O)CN1CCN(CC(=O)O)CCN(CC(=O)O)CCN(CC(=O)O)CC1)C(=O)N[C@@H](Cc1c[nH]c2ccccc12)C(=O)N[C@@H](CO)C(N)=O [[^177Lu]Lu-uPAR-02, metal not drawn]
Response given: 3.2

----------
Test system: HEK-uPAR xenograft-bearing nude mice
Assay: Biodistribution studies in HEK-uPAR xenograft-bearing nude mice
Conditions: 24 h p.i.; average ± SD, n=3 animals
Parameter: Xenograft-to-kidney ratio
# output: bare number, no unit

Below, each entry is followed by its recorded Xenograft-to-kidney ratio result.
[
  {
    "Compound": "CC(C)C[C@H](NC(=O)[C@H](Cc1ccc(O)cc1)NC(=O)[C@@H](CCCNC(=N)N)NC(=O)[C@@H](CO)NC(=O)[C@H](Cc1ccccc1)NC(=O)[C@H](CC1CCCCC1)NC(=O)[C@H](CC(=O)O)NC(=O)[C@H](CCCCNC(=O)CCCc1ccc(I)cc1)NC(=O)CN1CCN(CC(=O)O)CCN(CC(=O)O)CCN(CC(=O)O)CC1)C(=O)N[C@@H](Cc1c[nH]c2ccccc12)C(=O)N[C@@H](CO)C(N)=O [[^177Lu]Lu-uPAR-01, metal not drawn]",
    "Xenograft-to-kidney ratio": 1.4
  },
  {
    "Compound": "CC(C)C[C@H](NC(=O)[C@H](Cc1ccc(O)cc1)NC(=O)[C@@H](CCCNC(=N)N)NC(=O)[C@@H](CO)NC(=O)[C@H](Cc1ccccc1)NC(=O)[C@H](CC1CCCCC1)NC(=O)[C@H](CC(=O)O)NC(=O)CCOCCOCCOCCOCCNC(=O)[C@H](CCCCNC(=O)CCCc1ccc(I)cc1)NC(=O)CN1CCN(CC(=O)O)CCN(CC(=O)O)CCN(CC(=O)O)CC1)C(=O)N[C@@H](Cc1c[nH]c2ccccc12)C(=O)N[C@@H](CO)C(N)=O [[^177Lu]Lu-uPAR-05, metal not drawn]",
    "Xenograft-to-kidney ratio": 1.9
  }
]

Please examine the following record next.
Challenge: Give measured Xenograft-to-kidney ratio for CC(C)C[C@H](NC(=O)[C@H](Cc1ccc(O)cc1)NC(=O)[C@@H](CCCNC(=N)N)NC(=O)[C@@H](CO)NC(=O)[C@H](Cc1ccccc1)NC(=O)[C@H](CC1CCCCC1)NC(=O)[C@H](CC(=O)O)NC(=O)CN1CCN(CC(=O)O)CCN(CC(=O)O)CCN(CC(=O)O)CC1)C(=O)N[C@@H](Cc1c[nH]c2ccccc12)C(=O)N[C@@H](CO)C(N)=O [[^177Lu]Lu-DOTA-AE105, metal not drawn, reference compound] (HEK-uPAR xenograft-bearing nude mice).
Response given: 0.33

----------
Experiment: in vivo
Conditions: female, CD1/nude, mouse, 5 MBq (0.5 nmol), total radioactivity, Intestines
Catalogue of molecules with associated tissue uptake at 24 h
Quick note: give the figure in %ID/g, leave out the unit.

[
  {
    "Molecule": "CC(C)C[C@H](NC(=O)[C@H](Cc1ccc(O)cc1)NC(=O)[C@@H](CCCNC(=N)N)NC(=O)[C@@H](CO)NC(=O)[C@H](Cc1ccccc1)NC(=O)[C@H](CC1CCCCC1)NC(=O)[C@H](CC(=O)O)NC(=O)[C@H](CCCCNC(=O)CCOCCOCCOCCOCCNC(=O)c1ccc(CNC(=O)CCCc2ccc(I)cc2)cc1)NC(=O)CN1CCN(CC(=O)O)CCN(CC(=O)O)CCN(CC(=O)O)CC1)C(=O)N[C@@H](Cc1c[nH]c2ccccc12)C(=O)N[C@@H](CO)C(N)=O [[^177Lu]Lu-uPAR-03, metal not drawn]",
    "Test value": 2
  }
]

Please examine the following record next.
Challenge: Give tissue uptake at 24 h for the following molecule: CC(C)C[C@H](NC(=O)[C@H](Cc1ccc(O)cc1)NC(=O)[C@@H](CCCNC(=N)N)NC(=O)[C@@H](CO)NC(=O)[C@H](Cc1ccccc1)NC(=O)[C@H](CC1CCCCC1)NC(=O)[C@H](CC(=O)O)NC(=O)[C@H](CCCCNC(=O)CCOCCOCCOCCOCCNC(=O)CCCc1ccc(I)cc1)NC(=O)CN1CCN(CC(=O)O)CCN(CC(=O)O)CCN(CC(=O)O)CC1)C(=O)N[C@@H](Cc1c[nH]c2ccccc12)C(=O)N[C@@H](CO)C(N)=O [[^177Lu]Lu-uPAR-02, metal not drawn]
Response given: 0.84

Data provenance is paper PMC12135066.
